B1: TPR t1 (parent)
chain: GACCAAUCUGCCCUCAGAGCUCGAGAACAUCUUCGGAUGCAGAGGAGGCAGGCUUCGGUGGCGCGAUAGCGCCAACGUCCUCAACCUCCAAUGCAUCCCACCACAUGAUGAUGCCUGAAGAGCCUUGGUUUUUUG

# Variants of: B1
# assayOverview: polymerase ribozyme fitness, log enrichment relative to wild type (log ratio); higher = more active; in vitro selection for triplet polymerase activity
Binary classification by polymerase ribozyme fitness (log ratio), with -4 as an inclusive lower bound for Yes; all other cases are No.

| mutationString | assignedClass |
| --- | --- |
| A6U G25A C56A C73A C79G C94U G113U C124A | No |
| C20G C115U | No |
| G52U C72U C104A G127C | Yes |
| A50C U59C C86U | Yes |
| C20A G122A | Yes |
| A41G C49G C82U C85U U131G | Yes |
| A18U G69U | Yes |
| U38C C64A | No |
| G42A C62U A84C | Yes |
| C11G C12G G48U G58U G60U C85A U106G | No |

The reported measurements were obtained from the RNAGym collection of RNA variant scans (doi:10.1073/pnas.2313332121).
